Where do these numbers come from? They come from the supplement of paper PMC9112550.

Tested on: Escherichia coli TOP10
assay: shrunken log2 fold change of peptide-encoding DNA abundance (4.5 h post-induction vs induction); higher = less antimicrobial activity (less host growth inhibition)
testParameters: time post-induction: 4.5 h; library: site-saturation at positions 5, 18, 19, 20
Everything with shrunken log2 fold change lower than -0.3 is Not satisfied; everything else, including exactly -0.3, is Satisfied.

RRIRQRPPRLPRPRPRPTLEPRP
Satisfied
RRIRTRPPRLPRPRPRPDAVPRP
Satisfied

[ask] Exam item: decide whether the reported shrunken log2 fold change for RRIRIRPPRLPRPRPRPSTGPRP is at least -0.3.
[reply] Not satisfied

[ask] Could you verify whether the entry RRIRERPPRLPRPRPRPCPDPRP shows shrunken log2 fold change of no less than -0.3?
[reply] Satisfied

[ask] Could you verify whether the entry RRIRVRPPRLPRPRPRPNNKPRP shows shrunken log2 fold change of no less than -0.3?
[reply] Not satisfied

[ask] Determine whether measured shrunken log2 fold change meets or exceeds -0.3 for RRIRFRPPRLPRPRPRPFRAPRP
[reply] Satisfied

[ask] Would you say RRIRVRPPRLPRPRPRPQWCPRP shows shrunken log2 fold change at minimum -0.3?
[reply] Satisfied

[ask] Record RRIRERPPRLPRPRPRPFISPRP ; criterion: shrunken log2 fold change no lower than -0.3. Met?
[reply] Satisfied

[ask] Check the entry RRIRNRPPRLPRPRPRPCMMPRP : does shrunken log2 fold change equal or exceed -0.3?
[reply] Not satisfied

[ask] Assess whether reported shrunken log2 fold change for RRIRLRPPRLPRPRPRPYKHPRP sits at -0.3 or higher.
[reply] Not satisfied

[ask] Is reported shrunken log2 fold change greater than or equal to -0.3 here: RRIRMRPPRLPRPRPRPMMYPRP
[reply] Satisfied

###

Test system: Escherichia coli TOP10
assay: shrunken log2 fold change of peptide-encoding DNA abundance (4.5 h post-induction vs induction); higher = less antimicrobial activity (less host growth inhibition)
testParameters: time post-induction: 4.5 h; library: site-saturation at positions 5, 18, 19, 20
readoutName: shrunken log2 fold change
Give bare numbers.

RRIRCRPPRLPRPRPRPWGPPRP
-0.299
RRIRNRPPRLPRPRPRPPTGPRP
0.154
RRIRERPPRLPRPRPRPLAEPRP
0.17
RRIRFRPPRLPRPRPRPVLYPRP
-0.457

I would be grateful if you could provide shrunken log2 fold change for each of the following entries.
1. RRIRKRPPRLPRPRPRPETYPRP
2. RRIRHRPPRLPRPRPRPSITPRP
3. RRIRMRPPRLPRPRPRPGMGPRP
4. RRIRRRPPRLPRPRPRPRKKPRP
5. RRIRVRPPRLPRPRPRPPCVPRP
6. RRIRKRPPRLPRPRPRPYFCPRP
7. RRIRHRPPRLPRPRPRPGCKPRP
8. RRIRNRPPRLPRPRPRPAPSPRP

[reply]
1: -0.00198; 2: -0.569; 3: 0.902; 4: 0.207; 5: -0.112; 6: -0.288; 7: 0.229; 8: 0.271

###

Test system: Escherichia coli TOP10;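 also: peptides expressed intracellularly from a pBAD plasmid library in pooled LB shake-flask culture, induced with 0.3% L-arabinose, DNA abundance read by NGS, three biological replicates, DESeq2 with apeglm shrinkage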
assay: shrunken log2 fold change of peptide-encoding DNA abundance (4.5 h post-induction vs induction); higher = less antimicrobial activity (less host growth inhibition)
testParameters: time post-induction: 4.5 h; library: site-saturation at positions 5, 18, 19, 20
readoutName: shrunken log2 fold change
One number for each entry.

Examples with answers:
RRIRARPPRLPRPRPRPWTFPRP
-0.0754
RRIRDRPPRLPRPRPRPWMWPRP
0.00708
RRIRRRPPRLPRPRPRPRWPPRP
0.598
RRIRHRPPRLPRPRPRPCMDPRP
-0.0981
RRIRVRPPRLPRPRPRPTVFPRP
-0.0187
RRIRSRPPRLPRPRPRPMTDPRP
-0.222
RRIRERPPRLPRPRPRPDWVPRP
0.0322

[ask] # input sequence: RRIRDRPPRLPRPRPRPCKFPRP ; wanted: its shrunken log2 fold change
[reply] 0.0155
